Just for reference, PubChem BioAssay (NCI) is where these values come from.

Would you kindly list TGI for each of these compounds?
# System: A549 NSCLC
# assay method text: NCI tumour cell line growth inhibition, 48 h

Short answer for COc1ccc(/C=C2/CSCC3=C2NC(=S)NC3c2ccc(OC)c(OC)c2OC)c(OC)c1OC (stereo unspecified) : TGI was 95.9 µM

Short answer for "CCC[CH2][Sn]([CH2]CCC)([O]c1cccc2cccnc12)[O]c1cccc2cccnc12" : TGI was 2.92 µM

Short answer for "O=c1c2ccccc2[nH]n1Cc1ccccc1" : TGI was > 100 µM

Short answer for OC1c2ccccc2CCC1CN1CCN(CCOC(c2ccc(F)cc2)c2ccc(F)cc2)CC1 (stereo unspecified) : TGI was > 100 µM

Short answer for "COc1ccc(C#Cc2ccc(=O)oc2-c2cc(OC)c(OC)c(OC)c2)cc1O" : TGI was > 100 µM

Short answer for O=C1C=CC2OC(c3ccccc3)C(O)C2O1 (stereo unspecified) : TGI was 14.5 µM

Short answer for "C=C(CN1CCN(c2ccc(C(F)(F)F)cc2)CC1)c1ccc(C(=O)Nc2ccccc2N)cc1" : TGI was 45.5 µM

Short answer for "N#Cc1c(NCc2ccccc2)nc(NCc2ccccc2)c(C#N)c1-c1ccc(O)cc1" : TGI was > 100 µM

Short answer for "CCCNC(=S)N/N=C(\C)c1ccc(S(=O)(=O)N(C)c2ccccc2)cc1" : TGI was > 100 µM

Short answer for "Cc1cc(S(=O)(=O)N2CCNNC2=O)c(S)cc1Cl" : TGI was > 100 µM

Short answer for "Cc1cccc(-n2c(N)c(-c3nc4ccccc4[nH]3)sc2=S)c1" : TGI was 71.9 µM

Short answer for "CSc1c(C2=C(c3cn(C)c4ccccc34)C(=O)NC2=O)c2ccccc2n1C" : TGI was > 25 µM

Short answer for "CNC(=O)NCNC(=O)NC" : TGI was > 100 µM

Short answer for "COc1ccc2c3c(Nc4cccc(/C(C)=N\O)c4)[nH]c4ccccc4c-3c(N=O)c2c1" : TGI was > 100 µM

Short answer for "O=c1oc2ccc(I)cc2c(=O)n1-c1ccc(F)cc1F" : TGI was 19.8 µM

Short answer for COC(=O)C1Cc2ccc(O)c(O)c2CN1 (stereo unspecified) : TGI was > 100 µM

Short answer for "C=C1C(=O)O[C@H]2[C@H]1CC/C(COC(=O)NCc1c[nH]c3ccccc13)=C\CC[C@@]1(C)O[C@@H]21" : TGI was 28.6 µM

Short answer for CCC(=O)N1C(=O)OCC1C(C)C (stereo unspecified) : TGI was > 100 µM

Short answer for CC(CC(N)C(=O)O)C(=O)O (stereo unspecified) : TGI was > 100 µM

Short answer for "O=C(Nc1cccc2c1C(=O)c1c(NC(=O)c3ccccc3)ccc(Nc3cccc4c3C(=O)c3ccccc3C4=O)c1C2=O)c1ccccc1" : TGI was > 100 µM

Short answer for "O=C1/C=C/[C@@H](O)[C@@H]2C[C@@H](O)C[C@H]2/C=C/CCC[C@H](CCc2cccc3ccccc23)O1" : TGI was 13.2 µM

----------
# Test system: SW-620 colon
# assay method text: NCI tumour cell line growth inhibition, 48 h
readout label: TGI

Entry "O=c1oc2ccc(I)cc2c(=O)n1-c1ccc(F)cc1F" under SW-620 colon had TGI of 11.6 µM

Entry N#CC12CCC1C1CCCCC12N1CCSCC1 (stereo unspecified) under SW-620 colon had TGI of > 100 µM

Entry N#CC(N=Nc1ccccc1C(=O)O)C(N)=O (stereo unspecified) under SW-620 colon had TGI of > 100 µM

Entry "CO[C@@H]1C=C[C@@]23c4cc5c(cc4CN(C[C@@H]2O)[C@H]3C1)OCO5" under SW-620 colon had TGI of > 100 µM

Entry C1CSCCSCCCSC2CCCCC2SC1 (stereo unspecified) under SW-620 colon had TGI of > 100 µM

Entry N#CC(/C(CCC(=O)Nc1ccc(Cl)cc1)=N/NC(=O)c1cc2ccccc2cc1O)c1ccccc1 (stereo unspecified) under SW-620 colon had TGI of > 100 µM

Entry CC1CN=C(NS(=O)(=O)c2cc(C(=O)Nc3ccc(Cl)cc3)c(Cl)cc2S)NN1 (stereo unspecified) under SW-620 colon had TGI of > 100 µM

Entry COC(=O)N1CC(=O)C(C(=O)NC23CC4CC(CC(C4)C2)C3)C1 (stereo unspecified) under SW-620 colon had TGI of > 100 µM

Entry "O=C(O)C[C@@H](Cl)[C@H](NC(=O)OCc1ccccc1)C(=O)O" under SW-620 colon had TGI of > 100 µM

Entry "NCCSc1cc(O)c2c(c1N)C(=O)c1ccccc1C2=O" under SW-620 colon had TGI of > 100 µM

Entry BrC(Br)=C1C(=C(Br)Br)C(Br)C1Br (stereo unspecified) under SW-620 colon had TGI of 1 µM

----------
Would you kindly list TGI for each of these compounds?
# Test system: HCT-15 colon
# assay method text: NCI tumour cell line growth inhibition, 48 h

Short answer for "S=C(NCCc1ccccn1)N/N=C/c1ccccn1" : TGI was > 100 µM

Short answer for N#CC(N=Nc1ccccc1C(=O)O)C(N)=O (configuration not stated) : TGI was > 100 µM

Short answer for CC(CC(=O)N1C(=O)C(C)(C)[C@@H](O)[C@H]1CC(C)C(Cl)(Cl)Cl)C(Cl)(Cl)Cl (some centres not stated) : TGI was > 100 µM

Short answer for "O=C(/C=C/c1ccc(Cl)cc1)c1ccccc(=O)c1O" : TGI was 6.08 µM

Short answer for "C=C(CN1CCN(c2ccc(C(F)(F)F)cc2)CC1)c1ccc(C(=O)Nc2ccccc2N)cc1" : TGI was > 100 µM

Short answer for CC(=O)OC(CC1(C)C(C)CCC23COC(=O)C2=CCCC31)c1ccoc1 (configuration not stated) : TGI was 56.2 µM

Short answer for CN1CN(C2OC(CO)C(O)C2O)c2nc(N)[nH]c(=O)c21 (configuration not stated) : TGI was > 100 µM

Short answer for CCCCCOCC(O)CO (configuration not stated) : TGI was > 100 µM

Short answer for "COc1cc2c(c(OC)c1OC)-c1ccc(O)cc1[C@@H](NC(C)=O)CC2" : TGI was > 100 µM

Short answer for O=C1c2ccccc2C(=O)N1CCSCC(CO)SCCN1C(=O)c2ccccc2C1=O (configuration not stated) : TGI was > 100 µM

Short answer for COC(=O)C1CCC(=O)N1C(c1cc(OC)c(OC)c(OC)c1)c1cc(OC)c(OC)c(OC)c1 (configuration not stated) : TGI was > 100 µM

Short answer for "CCOP(=O)(OCC)/C(C#N)=C/c1cccn1C(C)C" : TGI was > 100 µM

Short answer for Clc1cc2nn(C3CCCCO3)nc2cc1Cl (configuration not stated) : TGI was > 100 µM

Short answer for COc1cc(C2CC(c3cccc(Nc4ccnc5cc(Cl)ccc45)c3)=NN2c2ccc(Cl)cc2)cc(OC)c1OC (configuration not stated) : TGI was > 100 µM

Short answer for "O=C1/C(=C/c2ccccc2)CN(C(=O)C(Cl)Cl)C/C1=C\c1ccccc1" : TGI was 0.77 µM

Short answer for "CCOC(=O)Cn1c2ccccc2c(=O)c2cc(C)c(C)c(C#N)c21" : TGI was > 100 µM

Short answer for COc1ccccc1Cc1ccc(C2C=CC3(CC(=O)C=C3C)C(=O)C2)o1 (configuration not stated) : TGI was 81.4 µM

Short answer for N#CC1(C#N)NC(c2ccccc2)C(C#N)(C#N)NC1c1ccccc1 (configuration not stated) : TGI was > 100 µM

Short answer for "COC(=O)/C=C\C(C#N)(C#N)N=Cc1cccc(OC)c1" : TGI was 4.54 µM

Short answer for "CCCNC(=S)N/N=C(\C)c1ccc(S(=O)(=O)N(C)c2ccccc2)cc1" : TGI was > 100 µM

Short answer for CCOC(=O)C1SC(=Nc2ccc(OC)c(OC)c2)N=C1C (configuration not stated) : TGI was > 100 µM

Short answer for "Clc1cccc(-c2sc(-c3ccsc3)cc2Cc2ccsc2)c1" : TGI was > 10 µM

----------
# Test system: COLO 205 colon
# assay method text: NCI tumour cell line growth inhibition, 48 h; in the data active means GI50 below about 0.43 µM; inactive means the rest
Just give me one of these, please: active, inactive

// outcome(item) with item = CCN(CC)CCCC(C)Nc1ccnc2cc(Cl)ccc12 (centres undefined)
inactive

// outcome(item) with item = "O=C1/C=C/[C@@H](O)[C@@H]2C[C@@H](O)C[C@H]2/C=C/CCC[C@H](CCc2cccc3ccccc23)O1"
active

// outcome(item) with item = COC1C(O)CC(OC2CC(OC3CC(O[C@@H]4C(=O)c5c(cc6cc(OC7CC(OC8CC(O)C(O)C(C)O8)C(O)C(C)O7)c(C)c(O)c6c5O)CC4[C@H](OC)C(=O)O)OC(C)C3O)OC(C)C2O)OC1C (some centres undefined)
inactive

// outcome(item) with item = "COc1ccc2c3c(Nc4cccc(/C(C)=N\O)c4)[nH]c4ccccc4c-3c(N=O)c2c1"
inactive

// outcome(item) with item = "COc1ccc(C=Nc2c(C(=O)Nc3cccc(Cl)c3C)sc3nc(C)c(C(=O)/C=C/c4ccc(OC)cc4)cc23)cc1"
inactive

// outcome(item) with item = "CSC(=NC#N)S/C=C/C(=O)c1ccccc1"
inactive

// outcome(item) with item = "Cc1c(-c2ccc(C3CCCCC3)cc2)nc2ccc(F)cc2c1C(=O)O"
active

// outcome(item) with item = "CCC[CH2][Sn]([CH2]CCC)([O]c1cccc2cccnc12)[O]c1cccc2cccnc12"
inactive

// outcome(item) with item = "CSc1c(C2=C(c3cn(C)c4ccccc34)C(=O)NC2=O)c2ccccc2n1C"
inactive
